Assay: Metabolic stability in human hepatic microsome
Type: in vitro ADME
Conditions: microsomes, pH 7.4; human hepatic microsome, NADPH(+); read-out: CL NADPH(+)
Starred links: 1 amine or outer side, 2 acyl side, 3 side chain; linkers in the order of their positions; H or OH if unused. Positions of bridges follow the written chain, without caps; N, C: chain ends. Non-standard residues stand in square brackets, D forms with d. Residues, ends and D or L forms follow the SMILES beside them. *: point of attachment. NMeF = CN[C@@H](Cc1ccccc1)C(=O)O; NMeI = CC[C@H](C)[C@H](NC)C(=O)O; hPhe = N[C@@H](CCc1ccccc1)C(=O)O; NMeβAla = CN(CCC(=O)[*:2])[*:1]; NMeL = CN[C@@H](CC(C)C)C(=O)O; NMeV = CN[C@H](C(=O)O)C(C)C; NMeA = CN[C@@H](C)C(=O)O; Piperidide = C1CCN(*)CC1; Sar = CNCC(=O)O; tBu = CC(C)(C)*
Readout Type: microsomal CLint at 1 uM (µL/min/mg)
Quick note: give the figure in µL/min/mg, leave out the unit.

Asked: Give the measured microsomal CLint at 1 uM for CC(C)C[C@H]1C(=O)N[C@@H](C(C)C)C(=O)N[C@H](C(=O)N(C)[C@@H](Cc2ccccc2)C(=O)N[C@@H](C)C(=O)N2CCCCC2)CC(=O)N[C@@H](C)C(=O)N(C)[C@@H](Cc2ccccc2)C(=O)N(C)[C@@H](C)C(=O)N(C)[C@@H](CC(C)C)C(=O)N[C@@H]([C@@H](C)O)C(=O)N(C)CC(=O)N1C [DP-196] (A[NMeF][NMeA][NMeL]T[Sar][NMeL]VD[NMeF]A-Piperidide; lactam N-9)
Given back: 65

Asked: For CC[C@H](C)[C@H](NC(=O)[C@H](Cc1ccccc1)N(C)C(=O)[C@H](Cc1ccccc1)N(C)C(=O)[C@@H]1CC(=O)N(C)CCC(=O)N(C)[C@@H](CC(C)C)C(=O)N(C)[C@@H](Cc2ccccc2)C(=O)N[C@@H](CC(C)C)C(=O)N(C)[C@@H](CC(C)C)C(=O)N(C)[C@@H](CC(C)C)C(=O)N[C@@H]([C@@H](C)O)C(=O)N(C)[C@@H](C)C(=O)N1)C(=O)N1CCCCC1 [DP-960] ([NMeβAla][NMeL][NMeF]L[NMeL][NMeL]T[NMeA]D[NMeF][NMeF]I-Piperidide; lactam N-9) , write its microsomal CLint at 1 uM.
Given back: 36

***
Asked: // Input: CC(C)C[C@H]1C(=O)N[C@H](C(=O)N2CCCCC2)CC(=O)N(C)[C@@H](C)C(=O)N(C)[C@@H](Cc2ccccc2)C(=O)N(C)[C@@H](CC(C)C)C(=O)N[C@@H]([C@@H](C)O)C(=O)N(C)[C@@H](C)C(=O)N1C [DP-678] ([NMeA][NMeF][NMeL]T[NMeA][NMeL]D-Piperidide; lactam N-7) . Output its microsomal CLint at 1 uM only.
Given back: 284

Asked: Consider the compound CC[C@H](C)[C@H]1C(=O)N[C@@H](C)C(=O)N(C)[C@@H](CC(C)C)C(=O)N[C@@H](COC(C)(C)C)C(=O)N(C)[C@@H](CC(C)C)C(=O)N[C@H](C(=O)N2CCCCC2)CC(=O)N(C)CCC(=O)N[C@@H](Cc2ccccc2)C(=O)N(C)[C@@H](Cc2ccccc2)C(=O)N(C)[C@@H](CC(C)C)C(=O)N[C@@H]([C@@H](C)O)C(=O)N(C)[C@@H](C)C(=O)N1C [DP-92] ([NMeβAla]F[NMeF][NMeL]T[NMeA][NMeI]A[NMeL]S(tBu)[NMeL]D-Piperidide; lactam N-12) . State its measured microsomal CLint at 1 uM.
Given back: 29

Asked: State its microsomal CLint at 1 uM: CC[C@H](C)[C@@H]1NC(=O)[C@H](Cc2ccccc2)N(C)C(=O)[C@H](CCc2ccccc2)NC(=O)[C@H](C(C)C)N(C)C(=O)[C@H](CC(C)C)N(C)C(=O)[C@H](CC(C)C)NC(=O)[C@@H](C)NC(=O)C[C@@H](C(=O)N2CCCCC2)NC(=O)[C@H]([C@@H](C)O)NC(=O)[C@H](C)NC(=O)[C@H](C)N(C)C1=O [DP-730] ([dA]L[NMeL][NMeV][hPhe][NMeF]I[NMeA]ATD-Piperidide; lactam N-11)
Given back: 50
